experiment notes: Metabolic stability in human liver S9 fraction
reported conditions: human, liver S9 fraction
observation type: half-life at 2 µM (min)
Dear colleague, please return just the value in min, with no unit written.

                                   compound   observation_type    u  assay_result
0  Clc1ccc(-c2nc3sccn3c2C=NOCc2ccc(Cl)c(Cl)c2)cc1 [CITCO, reference compound]  half-life at 2 µM  min          22.5

As a next step, examine the compound that follows.
# input Given `NC(=O)c1cc(Cn2cc(-c3c(-c4ccc(Cl)cc4)nc4cc(F)ccn34)nn2)ccc1Cl` , respond with its half-life at 2 µM.
# output 171

###

experiment notes: Pharmacokinetic study after single dose in C57BL/6N mice
Format: in vivo, mouse
reported conditions: male, C57BL/6N, mouse, ip; Plasma, 10 mg/kg
observation type: Cmax

# input Report Cmax, nothing else, for this compound: `NC(=O)c1cc(Cn2cc(-c3c(-c4ccc(Cl)cc4)nc4cc(F)ccn34)nn2)ccc1Cl`
# output 5530 ng/mL

###

experiment notes: Pharmacokinetic study after single dose in C57BL/6N mice
Type: in vivo, mouse
reported conditions: male, C57BL/6N, mouse, ip; Liver, 10 mg/kg
observation type: Tmax (min)
Give the value, in units of min, as a plain number.

# input Identify the reported Tmax for the following entry. `NC(=O)c1cc(Cn2cc(-c3c(-c4ccc(Cl)cc4)nc4cc(F)ccn34)nn2)ccc1Cl`
# output 30

###

experiment notes: Mouse plasma protein binding
Format: in vitro ADME
observation type: fraction unbound
When you answer, write just the number.

In [3]: df
Out[3]:
                                   compound  observation_type  assay_result
0  Clc1ccc(-c2nc3sccn3c2C=NOCc2ccc(Cl)c(Cl)c2)cc1 [CITCO, reference compound]  fraction unbound          0.02

# input Entry `NC(=O)c1cc(Cn2cc(-c3c(-c4ccc(Cl)cc4)nc4cc(F)ccn34)nn2)ccc1Cl` needs its fraction unbound filled in; supply it.
# output 0.01

###

Quick reference: half-life of the listed items.
experiment notes: Metabolic stability in mouse liver S9 fraction
reported conditions: male, CD-1, mouse, s9
Procedure: Shimadzu HPLC system including vacuum degasser, gradient pumps, reverse phase HPLC column, column oven, and autosampler with an API 4000 QTRAP mass spectrometer (Applied Biosystems/MDS Sciex (AB Sciex) with Turbo V ion source and TurboIonspray interface were used. The reference compound midazolam, which is metabolized both by phase I and phase II enzymes, was used. The elimination constant (kel), half-life (t1/2), and intrinsic clearance (Clint) were determined[19] (Table S1).
Answer in min, number only, no unit symbol.

>>> df
                              smiles_data  observation_type  assay_result
0  Cc1ncc2n1-c1ccc(Cl)cc1C(c1ccccc1F)=NC2         half-life           3.1

Moving on to another compound below.
# input Please give measured half-life of the following entry: `NC(=O)c1cc(Cn2cc(-c3c(-c4ccc(Cl)cc4)nc4cc(F)ccn34)nn2)ccc1Cl`
# output 112

###

experiment notes: Pharmacokinetic study after single dose in C57BL/6N mice
Format: in vivo, mouse
reported conditions: male, C57BL/6N, mouse, po; Liver, 10 mg/kg
observation type: half-life
Be sure to follow the number with its unit.

# input Check the records and state half-life for `NC(=O)c1cc(Cn2cc(-c3c(-c4ccc(Cl)cc4)nc4cc(F)ccn34)nn2)ccc1Cl`
# output 3.52 h

###

system name: human PXR (Homo sapiens)
Sequence (O75469 whole entry): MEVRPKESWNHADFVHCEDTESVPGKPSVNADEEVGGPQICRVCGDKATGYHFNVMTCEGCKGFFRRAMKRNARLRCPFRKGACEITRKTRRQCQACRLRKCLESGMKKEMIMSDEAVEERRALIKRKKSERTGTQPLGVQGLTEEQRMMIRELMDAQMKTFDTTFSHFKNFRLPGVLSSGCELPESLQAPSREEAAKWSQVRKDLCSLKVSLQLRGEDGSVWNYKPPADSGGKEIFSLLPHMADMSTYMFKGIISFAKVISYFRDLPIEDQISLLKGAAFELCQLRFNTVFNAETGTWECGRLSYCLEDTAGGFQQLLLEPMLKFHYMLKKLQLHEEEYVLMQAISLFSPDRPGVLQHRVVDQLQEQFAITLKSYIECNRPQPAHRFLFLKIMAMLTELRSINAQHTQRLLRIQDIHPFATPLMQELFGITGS
experiment notes: PXR luciferase reporter gene assay (CYP3A4-luc) in HepG2 cells
Type: cell-based
Parameters: host or cells: HepG2
reported conditions: reply to reviewers; read-out: IC50 for PXR antagonistic activity
observation type: pIC50
For clarity, pIC50 is expressed as the negative log10 of concentration in mol/L.

# input Please report pIC50 for the following molecule: NC(=O)c1cc(Cn2cc(-c3c(-c4ccc(Cl)cc4)nc4cc(F)ccn34)nn2)ccc1Cl [MI-883]
# output 5.70

###

experiment notes: Pharmacokinetic study after single dose in C57BL/6N mice
Assay type: in vivo, mouse
reported conditions: male, C57BL/6N, mouse, po; Plasma, 10 mg/kg
observation type: Tmax (min)
Write down the numeric answer in min and omit the unit.

# input Tell me measured Tmax for NC(=O)c1cc(Cn2cc(-c3c(-c4ccc(Cl)cc4)nc4cc(F)ccn34)nn2)ccc1Cl [MI-883] please.
# output 30

###

system name: human PXR (Homo sapiens)
experiment notes: PXR luciferase reporter gene assay (CYP3A4-luc) in HepG2 cells
Format: cell-based
Design: host or cells: HepG2
reported conditions: HepG2 cells; read-out: IC50, basal PXR activation
observation type: IC50 (nM)
Kindly provide the numeric value in nM only, without the unit symbol.

# input Return the recorded IC50 value; entry: `NC(=O)c1cc(Cn2cc(-c3c(-c4ccc(Cl)cc4)nc4cc(F)ccn34)nn2)ccc1Cl`
# output 2030

###

Listed below: microsomal CLint values for each entry.
experiment notes: Metabolic stability in mouse liver S9 fraction
reported conditions: male, CD-1, mouse, liver S9 fraction
Quick reminder: number only, in µL/min/mg, skip the unit.

In [3]: df
Out[3]:
                                   compound  assay_result
0  NC(=O)c1cc(Cn2cc(-c3c(-c4ccc(Cl)cc4)nc4cc(F)ccn34)nn2)ccc1Cl [MI-883]             3

// moving on: another record for microsomal CLint
# input Find the measured microsomal CLint of Clc1ccc(-c2nc3sccn3c2C=NOCc2ccc(Cl)c(Cl)c2)cc1 [CITCO, reference compound] and report it.
# output 9

###

experiment notes: Metabolic stability in human liver S9 fraction
reported conditions: human, liver S9 fraction
Catalogue of microsomal CLint at 2 µM readings, one per entry.
Numeric only. Scale: µL/min/mg

>>> print(df.to_string())
                                   compound          u  assay_result
0  NC(=O)c1cc(Cn2cc(-c3c(-c4ccc(Cl)cc4)nc4cc(F)ccn34)nn2)ccc1Cl  µL/min/mg             2

Please examine the following record next.
# input Entry Clc1ccc(-c2nc3sccn3c2C=NOCc2ccc(Cl)c(Cl)c2)cc1 [CITCO, reference compound] needs its microsomal CLint at 2 µM filled in; supply it.
# output 15

###

experiment notes: Metabolic stability in human liver S9 fraction
reported conditions: human, s9
observation type: microsomal CLint at 2 µM
Write down the value, and be sure its unit follows.

# input Annotate the compound `Cc1ncc2n1-c1ccc(Cl)cc1C(c1ccccc1F)=NC2` with its measured microsomal CLint at 2 µM.
# output 55 µL/min/mg

###

experiment notes: Metabolic stability in human liver S9 fraction
reported conditions: human, s9
observation type: half-life at 2 µM (min)
Numbers only; they are read as min.

# input State its half-life at 2 µM: `Cc1ncc2n1-c1ccc(Cl)cc1C(c1ccccc1F)=NC2`
# output 6.3

###

experiment notes: Pharmacokinetic study after single dose in C57BL/6N mice
Format: in vivo, mouse
reported conditions: male, C57BL/6N, mouse, po; Liver, 10 mg/kg
Experimental: Pharmacokinetic study of MI-883 in C57BL/6N mice (9–10 weeks old, body weight 20.8 to 24.5 g and average body weight across all groups 22.7 g, SD = 1.1 g) were performed following peroral (p.o.) and intraperitoneal (i.p.) administrations. […] The levels of the parent compound MI-883 were determined by LC-MS/MS in the blood plasma, brain, kidney, liver, muscle (Leg triceps), bile, small intestine, colon, and adipose tissues over time after a single dose of 10 mg/kg. […]
observation type: Cmax
The reply should consist of the numeric value with the unit placed after it.

# input Give reported Cmax value for `NC(=O)c1cc(Cn2cc(-c3c(-c4ccc(Cl)cc4)nc4cc(F)ccn34)nn2)ccc1Cl`
# output 14900 ng/mL

###

experiment notes: Repeated dose 28-day oral toxicity study in rats (OECD 407, non-GLP)
Format: in vivo
reported conditions: rat, in vivo, 10 mg/kg; 28 days per os, rats
observation type: NOAEL at 28 days

# input Return the recorded NOAEL at 28 days value; entry: NC(=O)c1cc(Cn2cc(-c3c(-c4ccc(Cl)cc4)nc4cc(F)ccn34)nn2)ccc1Cl [MI-883]
# output > 10 mg/kg

###

experiment notes: Pharmacokinetic study after single dose in C57BL/6N mice
Type: in vivo, mouse
reported conditions: male, C57BL/6N, mouse, po; Liver, 10 mg/kg
Procedure: Pharmacokinetic study of MI-883 in C57BL/6N mice (9–10 weeks old, body weight 20.8 to 24.5 g and average body weight across all groups 22.7 g, SD = 1.1 g) were performed following peroral (p.o.) and intraperitoneal (i.p.) administrations. […] The levels of the parent compound MI-883 were determined by LC-MS/MS in the blood plasma, brain, kidney, liver, muscle (Leg triceps), bile, small intestine, colon, and adipose tissues over time after a single dose of 10 mg/kg. […]
observation type: Tmax (min)
Enter your answer as a number in min; do not include the unit.

# input Indicate its recorded Tmax; the compound in question is `NC(=O)c1cc(Cn2cc(-c3c(-c4ccc(Cl)cc4)nc4cc(F)ccn34)nn2)ccc1Cl`
# output 30
